Items are presented alongside their recorded inhibition at 0.1 µM.
Target: IKur in human atrial myocytes (Homo sapiens)
Construct: Human myocytes were isolated from specimens of right atrial appendage obtained from patients; endogenous in cells; host or cells: human atrial myocytes from right atrial appendage of patients undergoing cardiopulmonary bypass
Sequence (P22460 whole entry): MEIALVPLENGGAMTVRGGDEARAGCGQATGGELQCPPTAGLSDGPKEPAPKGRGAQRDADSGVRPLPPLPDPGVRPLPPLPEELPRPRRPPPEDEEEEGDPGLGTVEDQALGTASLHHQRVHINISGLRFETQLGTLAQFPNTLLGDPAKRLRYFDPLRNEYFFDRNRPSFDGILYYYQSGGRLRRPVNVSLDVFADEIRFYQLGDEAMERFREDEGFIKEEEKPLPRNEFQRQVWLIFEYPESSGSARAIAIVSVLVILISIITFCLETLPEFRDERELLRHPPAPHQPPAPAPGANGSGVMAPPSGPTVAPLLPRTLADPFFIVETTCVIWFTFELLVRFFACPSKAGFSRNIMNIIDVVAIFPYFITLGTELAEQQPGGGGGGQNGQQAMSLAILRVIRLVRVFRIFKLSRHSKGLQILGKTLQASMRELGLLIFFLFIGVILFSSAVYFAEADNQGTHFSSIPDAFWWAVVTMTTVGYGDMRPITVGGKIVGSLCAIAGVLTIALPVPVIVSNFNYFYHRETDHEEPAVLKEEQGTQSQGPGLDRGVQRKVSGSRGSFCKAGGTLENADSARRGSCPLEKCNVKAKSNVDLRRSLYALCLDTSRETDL
Test: Voltage clamp measurement of IKur block (rested state, use-dependent, rate-dependent) in human atrial myocytes
Assay type: cell-based
Conditions: 100 nM; 10th pulse @ 1 Hz; human atria; read-out: Average % Block, Use-Dpdnt, 10th pulse
quantity: inhibition at 0.1 µM (%)

- COc1ccc(-n2nc(Sc3ccc(Cl)cc3)c(C)c(C#N)c2=O)cc1: 67.9
- CC1CCC(C(C)C)C(P(=O)(c2ccccc2)c2ccccc2)C1 (stereo not shown): 59.7
- COc1ccc(-n2nc(Sc3ccc(C)cc3)c(C)c(C#N)c2=O)cc1: 68
- Cc1cc(C)c(CP(=O)(c2ccccc2)c2ccccc2)c(-c2ccc(F)c(C)c2)c1: 17.8
